SH2 binding enrichment overview
- test.system: SHP2-C SH2;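 note: peptide library displayed on the E. coli surface as eCPX fusions, selected cells deep-sequenced, score is each peptide's frequency after selection divided by its frequency in the input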
- experiment: SH2 binding enrichment of the phosphorylated peptide, bacterial display (enrichment ratio); higher = better substrate or ligand; peptides without Tyr show the background
value.type: SH2 binding enrichment

EVEPTYVVLFD [ERCC4_Y577_R576T_YF]: 0.521
ACRSLYGGFVE [MVD_Y164]: 0.808
ALAQKYHGGGG [HBB_Y146_H144Q]: 0.743
ALWYIYSHTRS [ENG_Y614]: 0.711

###

- test.system: Jak2 (UniProt O60674)
- Sequence (O60674 whole entry, looked up): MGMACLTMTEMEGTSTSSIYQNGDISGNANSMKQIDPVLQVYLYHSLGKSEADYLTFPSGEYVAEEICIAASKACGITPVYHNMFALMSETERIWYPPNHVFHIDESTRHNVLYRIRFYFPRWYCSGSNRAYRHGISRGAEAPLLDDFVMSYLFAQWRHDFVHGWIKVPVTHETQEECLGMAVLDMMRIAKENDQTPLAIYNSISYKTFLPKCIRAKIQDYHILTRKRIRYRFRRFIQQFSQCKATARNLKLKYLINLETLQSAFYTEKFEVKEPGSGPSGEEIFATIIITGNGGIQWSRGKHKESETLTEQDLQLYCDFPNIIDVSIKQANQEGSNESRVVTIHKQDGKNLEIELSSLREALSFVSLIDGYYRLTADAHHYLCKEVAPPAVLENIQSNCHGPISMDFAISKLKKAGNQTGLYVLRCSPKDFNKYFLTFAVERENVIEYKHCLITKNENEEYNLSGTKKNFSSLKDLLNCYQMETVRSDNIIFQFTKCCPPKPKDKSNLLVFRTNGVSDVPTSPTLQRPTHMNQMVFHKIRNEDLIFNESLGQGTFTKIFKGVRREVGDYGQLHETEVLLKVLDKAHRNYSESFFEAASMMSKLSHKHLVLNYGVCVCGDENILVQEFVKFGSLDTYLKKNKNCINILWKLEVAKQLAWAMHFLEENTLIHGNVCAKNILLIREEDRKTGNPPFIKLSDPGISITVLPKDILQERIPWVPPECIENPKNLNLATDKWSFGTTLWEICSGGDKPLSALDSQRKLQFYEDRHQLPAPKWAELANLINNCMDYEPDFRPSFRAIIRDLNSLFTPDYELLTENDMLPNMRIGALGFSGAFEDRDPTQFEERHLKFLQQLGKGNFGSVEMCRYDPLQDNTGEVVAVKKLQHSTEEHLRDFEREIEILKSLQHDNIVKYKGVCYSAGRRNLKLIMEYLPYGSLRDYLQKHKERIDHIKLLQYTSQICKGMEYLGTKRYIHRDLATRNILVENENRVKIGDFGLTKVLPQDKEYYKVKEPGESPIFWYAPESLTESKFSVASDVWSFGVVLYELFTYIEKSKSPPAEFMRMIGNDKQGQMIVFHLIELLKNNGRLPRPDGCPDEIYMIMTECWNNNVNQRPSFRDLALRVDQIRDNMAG
- experiment: phosphorylation enrichment, bacterial display (enrichment ratio); higher = better substrate or ligand; peptides without Tyr show the background
Each entry gets label 0 if its phosphorylation enrichment stays under 1, and label 1 if its phosphorylation enrichment is 1 or above.

AERKLYRNVML [ZNF569_Y33_Q29E]: label 0
EDKFMYSEFPQ [PTEN_Y240_F241S]: label 1
PSDPSYEDTRE [BMPR1A_Y467_M470T]: label 1
LSAPWYLNRIS [HEXA_Y421]: label 0
DTQNSYWCATS [TSC1_Y304_G305W]: label 0
RGNKEYKEEKR [LENG1_Y96_E97K]: label 0
FLQEIYNSNNQ [FGG_Y140_YF]: label 0
RLNAIYQNNLT [GSR_Y158]: label 0
GREAEYSEKHG [EPHB4_Y574_D576E]: label 0
QDGYSYLSRQM [LDLR_Y847_P848L]: label 0
EATKVYLDDPT [G6PD_Y322_G321V]: label 0
EDDPEYMRLRN [ADD2_Y31]: label 1
INITIYGKTFC [EFHC1_Y177_R182C]: label 1
GRLPEYNTPIA [CCDC151_Y542_R545P]: label 0
ECKHLYSRKEG [PTPN11_Y263_L261H]: label 0
NPSFNYEIVNR [DYNC1H1_Y3379_YF]: label 1
ISITPYPAILH [IFT80_Y588]: label 1
GGQVFYNSEFG [FLT4_Y1333_YF]: label 1
FSNKLYFQLEQ [PDPR_Y109_YF]: label 1
VFGVSYDEFRF [CFTR_Y512_I507V_YF]: label 1

// provenance: the supplement of paper PMC10065799
